System: MCF7
Protocol summary: Cytotoxicity against human MCF7 cells assessed as growth inhibition after 72 hrs by MTT assay
Assay type: functional, cell-based
Condition parameters: MCF7, 72 h
pIC50: −log10 of the molar value.
pIC50 reference

These recorded examples may help you get a feel for the data.
q: Return the recorded pIC50 value; entry: `COc1ccc2c(c1CCO)O[C@@H](c1ccc(O)cc1O)CC2`
a: < 5.00

q: In one line, give reported pIC50 of the entry `COC(=O)c1cc(O)cc2oc(-c3ccc(OC)cc3)cc(=O)c12` .
a: 5.64

q: Supply reported pIC50 belonging to this molecule: `COc1c(O)ccc(C/C=C/c2ccc3c(c2)OCO3)c1OC`
a: < 5.00

q: Return pIC50 for the following molecule: `COc1cc2c(=O)cc(-c3ccc(O)c(O)c3)oc2c(C(C)=O)c1OC`
a: 5.55

q: Answer with the recorded pIC50 for the molecule listed here: `COc1cc2c(cc1OC)[C@@H](O)[C@H](c1ccc(O)cc1)CO2`
a: < 5.00

Next:
q: Input `COC(=O)[C@@]1(O)c2c(oc(-c3ccc(O)cc3)cc2=O)OC=C[C@@H]1O` , output reported pIC50.
a: < 5.00

q: // Input: `O=C(OC[C@H]1O[C@@H](Oc2c(-c3ccc(O)cc3)oc3cc(O)cc(O)c3c2=O)[C@H](O)[C@@H](O)[C@@H]1O)c1ccc(O)cc1` . Output its pIC50 only.
a: 5.14

q: Please indicate pIC50 recorded for `COc1ccc([C@@H]2COc3cc(OC)c(O)cc3[C@H]2O)cc1`
a: < 5.00

q: Tell us which pIC50 value is on record for `COc1cc(/C=C/Cc2ccc(O)c(OC)c2OC)cc2c1OCO2`
a: < 5.00
